Test system: MALME-3M melanoma
Assay: NCI tumour cell line growth inhibition, 48 h; in the data active means GI50 below about 0.43 µM; inactive means the rest
Choose one outcome from this list and give only that: active, inactive

Q: Hi team, can someone confirm the assay call for CCCCC(=O)[O-].N.N.N.N.N.[Co+3].[O-][Cl+3]([O-])([O-])[O-] ?
Ans: inactive

Q: Now the compound CCC(C)/C=C(C)/C=C/C(=O)c1c(O)c(-c2ccc(O)cc2)c[nH]c1=O (stereo not given)
Ans: inactive

Q: Param item: CN1CCN(Cc2ccc(NC(=O)c3[nH]ncc3Nc3ncnc4c3CCC4)cc2)CC1
Ans: inactive

Q: // repeat for c1ccc2[nH]c(-c3ccc(OCCCCCOc4ccc(-c5nc6ccccc6[nH]5)cc4)cc3)nc2c1 and report
Ans: inactive

Q: Let us now turn to Cn1c2ccccc2c2nnc(N/N=C/c3ccccn3)nc21
Ans: active

Q: Moving on to the next compound: CCS(=O)(=O)c1ccc(OC)c(Nc2nccc(N(C)c3ccc4c(C)[nH]nc4c3)n2)c1
Ans: inactive

Q: Check Cl.Fc1c[c-]c(-c2ccccn2)c(F)c1.[Pt].c1ccc([PH+](CC[PH+](c2ccccc2)c2ccccc2)c2ccccc2)cc1 too.
Ans: active

Q: Repeat with O=C1C(Cl)=C(N2CCOCC2)C(=O)c2ccccc21
Ans: inactive

Q: Likewise for Clc1cc(Cl)cc(N2N=C(c3cccc(Nc4ccncc4)c3)CC2c2ccc(Br)cc2)c1 (stereo not given) ?
Ans: inactive

Q: Now the same for Cc1ccc(C(=O)N/N=C/c2cccc(Oc3ccccc3)c2)cn1
Ans: inactive

---

Provide the reported GI50 of each item.
System: HCC-2998 colon
Assay: NCI tumour cell line growth inhibition, 48 h
*1 amine or outer side, *2 acyl side, *3 side chain or, on linkers, in order; H or OH if unused. Where a SMILES comes first, the peptide text is derived from it. Bridges are numbered along the chain shown (N, C = ends). [ ]: non-standard residue; d: D form. The star is where a group is joined. Phe(3-Me) = Cc1cccc(C[C@H](N)C(=O)O)c1; NH(4-Cl-2-F-phenyl) = Fc1cc(Cl)ccc1N*; Pro(4R-Me) = C[C@H]1CN[C@H](C(=O)O)C1; Hyp = O=C(O)[C@@H]1C[C@@H](O)CN1; aThr = C[C@H](O)[C@H](N)C(=O)O; Pip = O=C(O)[C@@H]1CCCCN1; CO = O=C([*:1])[*:2]

Q: I would be grateful if you could share the reported GI50 for COc1cc2cnc3c(c2cc1OC)Cc1cc2c(cc1-3)OCO2 .
Ans: < 0.01 µM

Q: Also O=C(N/N=C/c1ccc(O)cc1O)c1ccc(Nc2ccnc(C(F)(F)F)c2)cc1 ?
Ans: > 75.2 µM

Q: Then this compound: Cc1cc2c(C(N)=O)cccc2n1-c1nc2c(c(NCc3ccccc3)n1)CCCN2
Ans: 0.17 µM

Q: Also CCC(C)/C=C(C)/C=C/C(=O)c1c(O)c(-c2ccc(O)cc2)c[nH]c1=O (configuration not stated) ?
Ans: 3.75 µM

Q: Please give the result for O=[N+]([O-])c1cc(Br)cc2c1[nH]c1ccc(Br)cc12 too.
Ans: 9.86 µM

Q: Then this compound: C#CC[C@H](c1nc2cc(Cl)ccc2c(=O)n1Nc1ccccc1)N(CCCN)C(=O)c1cccc(Cl)c1F
Ans: 0.178 µM

Q: Same question, Cc1c(Cl)cccc1NC(=O)c1sc2nc3c(cc2c1N)CCCCCC3 this time
Ans: 1.39 µM

Q: CCS(=O)(=O)c1ccc(OC)c(Nc2nccc(N(C)c3ccc4c(C)[nH]nc4c3)n2)c1 ?
Ans: 8.18 µM

Q: Next up: O=C(Nc1ccc(Nc2ccncc2)cc1)c1ccc(Nc2ccnc3ccc([N+](=O)[O-])cc23)cc1
Ans: > 100 µM

Q: Next record, please: Cc1ccc(NC2=C(Sc3ccc(Cl)cc3)C(=O)N(Cc3ccccc3)C2=O)cc1Cl
Ans: 19.6 µM

Q: Please give the result for CCc1nc2ccc(Cc3ccc(C(=O)NO)cc3)cc2c(=O)n1CCc1ccccc1 too.
Ans: 1.44 µM

Q: Would you kindly repeat that for Cc1cccc(C[C@H](NC(=O)Nc2ccc(Cl)cc2F)C(=O)N[C@@H]2C(=O)N3C[C@H](O)C[C@H]3C(=O)N3CCCC[C@H]3C(=O)N[C@@H](C)C(=O)N3C[C@H](C)C[C@H]3C(=O)O[C@H]2C)c1 ({NH(4-Cl-2-F-phenyl)-CO}-[Phe(3-Me)][aThr][Hyp][Pip]A[Pro(4R-Me)]; ester 2-C) ?
Ans: 0.468 µM

---

Kindly supply the reported TGI values for the records listed here.
Test system: HL-60(TB) leukemia
Assay: NCI tumour cell line growth inhibition, 48 h
Use µM as the unit, but write only the number.

Q: Lab note: need TGI for COc1cc(-c2cc(-c3nc4ccccc4[nH]3)[nH]n2)cc(OC)c1OC on HL-60(TB) leukemia, anyone have it?
Ans: 10.5

Q: Same again, this time with CC1=CC[C@H](C)C(C)(C)C1/C=C/C(C)=C/CC[C@@]1(CO)[C@H](CCCO)/C(=C(/C)C=O)CC[C@]1(C)O (stereo not given in full)
Ans: 7.79

Q: Next: O=C1C(Cl)=C(N2CCOCC2)C(=O)c2ccccc21
Ans: 5.32

Q: Same for COC(=O)c1cc(C)ccc1CC(Cc1ccccc1C)C(=O)OC (stereo not given)
Ans: 36.3

Q: Similarly, Cc1nc(Nc2ccc(F)c(Cl)c2)sc1C(=O)O ?
Ans: 8.17

---

System: SNB-78 CNS
Assay: NCI tumour cell line growth inhibition, 48 h
Please provide measured TGI for the entries that follow.

Q: Entry CCCN(CCC)C(=O)Cc1c2n(c3ccccc13)Cc1ccccc1-2 has what TGI?
Ans: > 100 µM

Q: Further, for Cc1c(C(=O)CC(=O)C(=O)Nc2cccc(C(F)(F)F)c2)[n+](=O)c2ccccc2n1[O-] ?
Ans: 25.2 µM

Q: And COc1cccc(NC(=O)N/C(=C/c2ccc(N(CCC#N)CCC#N)cc2)NC(=O)c2cc([N+](=O)[O-])ccc2Cl)c1 ?
Ans: > 100 µM

Q: Likewise for O=C(Nc1nccs1)c1cc(C2=CC=CC([N+](=O)[O-])C=C2)nc(=S)[nH]1 (configuration not stated) ?
Ans: > 100 µM

Q: Same lookup for CCCCC(=O)[O-].N.N.N.N.N.[Co+3].[O-][Cl+3]([O-])([O-])[O-] , please.
Ans: > 100 µM

Q: Input CNC=O
Ans: > 10000 µM

Q: Request: CC(=O)Oc1cccc2c1C(=O)C(Br)(Br)CCC2
Ans: 33.8 µM

---

System: HOP-92 NSCLC
Assay: NCI tumour cell line growth inhibition, 48 h
Can you tell me log10 TGI for the items I'm about to list?
Quick note: numbers are log10 of TGI, with µM as the unit.

Q: Look at this molecule and give its reported log10 TGI. COC(=O)c1cc(C)ccc1CC(Cc1ccccc1C)C(=O)OC (stereo unspecified)
Ans: 1.90

Q: Record: Cc1cc(S(N)(=O)=O)c(S/C(=N\Nc2ccc([N+](=O)[O-])cc2)c2ccc(Cl)cc2)cc1Cl
Ans: 0.73

Q: Same for COc1ccccc1/C=C1/Sc2scc(CC(=O)Nc3ccccc3)[n+]2C1=O
Ans: 1.72

Q: Now consider O/N=C1\CC2(N3CCOCC3)CCC1(Cc1ccccc1)CC2 .
Ans: 1.95

Q: Here is the next molecule: Cc1ccc(NC2=C(Sc3ccc(Cl)cc3)C(=O)N(Cc3ccccc3)C2=O)cc1Cl
Ans: 1.23

Q: Same question, CCOC(=O)C(Cc1c[nH]c2cc([N+](=O)[O-])ccc12)(NC(C)=O)C(=O)OCC this time
Ans: 2.15

Q: What about Nc1ccccc1Sc1ccc(Cl)cc1 ?
Ans: 1.61

Q: Check Cn1c2ccc([N+](=O)[O-])cc2c(=O)c2c(O)cc(O)cc21 too.
Ans: 1.98

Q: COC(=O)c1ccc(NCC2=CC(=O)c3ccccc3C2=O)cc1 ?
Ans: 1.09

Q: Also, CCc1oc2ccccc2c1C(=O)c1cc(Br)c(O)c(Br)c1 please.
Ans: 1.81

Q: c1cncc(CNc2ccccc2-c2nnc(Nc3ccc4c(c3)OCCO4)o2)c1 , same question.
Ans: 1.30

Q: And the next one, Cc1cc2nc3c(C(O)CO)nn(-c4ccccc4)c3nc2cc1C (stereo unspecified) ?
Ans: 1.66

Q: Can you handle Cl.Fc1c[c-]c(-c2ccccn2)c(F)c1.[Pt].c1ccc([PH+](CC[PH+](c2ccccc2)c2ccccc2)c2ccccc2)cc1 next?
Ans: -0.37

Q: Next molecule up: O=C(O)c1cc2c(cc1S(=O)(=O)O)C1C(C3C2C2(Cl)C(Cl)=C(Cl)C3(Cl)C2(Cl)Cl)C2(Cl)C(Cl)=C(Cl)C1(Cl)C2(Cl)Cl (stereo unspecified)
Ans: 1.93

Q: Cool, now CCOP(=O)(OCC)C(Cc1ccccc1)N=C(c1ccccc1)c1ccccc1 (stereo unspecified)
Ans: 1.44

Every entry's value here was drawn from PubChem BioAssay (NCI).
